- Measured on: UniProt P03372
- Sequence (P03372 whole entry): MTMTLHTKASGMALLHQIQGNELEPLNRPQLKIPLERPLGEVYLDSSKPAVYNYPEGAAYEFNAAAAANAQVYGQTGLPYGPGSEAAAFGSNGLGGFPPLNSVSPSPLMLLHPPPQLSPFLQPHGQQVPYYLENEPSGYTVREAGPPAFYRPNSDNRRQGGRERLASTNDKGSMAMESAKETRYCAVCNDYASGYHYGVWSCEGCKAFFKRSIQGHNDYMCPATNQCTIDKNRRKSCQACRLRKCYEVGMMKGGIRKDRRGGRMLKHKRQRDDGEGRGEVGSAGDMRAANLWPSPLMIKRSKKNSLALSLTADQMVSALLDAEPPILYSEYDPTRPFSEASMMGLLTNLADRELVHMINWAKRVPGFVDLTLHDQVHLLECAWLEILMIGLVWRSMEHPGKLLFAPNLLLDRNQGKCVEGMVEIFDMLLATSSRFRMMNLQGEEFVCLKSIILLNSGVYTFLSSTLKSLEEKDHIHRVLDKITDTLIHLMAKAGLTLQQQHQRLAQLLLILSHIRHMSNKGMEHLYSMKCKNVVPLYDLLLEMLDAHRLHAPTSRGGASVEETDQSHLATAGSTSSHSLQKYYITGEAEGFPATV
- Test: Western blot analysis (Compounds B1-B278)
- Format: cell-based
- Condition: ER degradation by traditional Western blot; DC50 classes
- From the text: Western Blot Analysis. […] The blots are scanned, and the band intensities are quantified (e.g., by using GelQuant.NET software provided by biochemlabsolutions.com). […] Western Blot Analysis. […] The blots were scanned, and the band intensities were quantified using GelQuant.NET software provided by biochemlabsolutions.com. […]
Parameter: Traditional Western Degradation Potency

{"Compound": "C[C@@H]1Cc2c([nH]c3ccccc23)[C@@H](c2c(F)cc(C3CCC(CN4CC(CN5Cc6cc7c(cc6C5)C(=O)N(C5CCC(=O)NC5=O)C7=O)C4)CC3)cc2F)N1CC(F)F (stereo partly shown)", "Parameter": "Traditional Western Degradation Potency", "Observed value": "C (“C”: >100 nM)"}
{"Compound": "C[C@@H]1Cc2c([nH]c3ccccc23)[C@@H](c2ncc(C3=CCC(C(=O)N4CCC(N5Cc6cc7c(cc6C5)C(=O)N(C5CCC(=O)NC5=O)C7=O)CC4)CC3)cc2F)N1CC(C)(C)F (stereo partly shown)", "Parameter": "Traditional Western Degradation Potency", "Observed value": "C (“C”: >100 nM)"}
{"Compound": "C[C@@H]1Cc2c([nH]c3ccccc23)[C@@H](c2cnc(N3CCC(CN4CCC(N5Cc6cc7c(cc6C5)C(=O)N(C5CCC(=O)NC5=O)C7=O)CC4)CC3)nc2)N1CC(F)(F)F (stereo partly shown)", "Parameter": "Traditional Western Degradation Potency", "Observed value": "B (“B”: 10-100 nM)"}
{"Compound": "C[C@@H]1Cc2c([nH]c3ccccc23)[C@@H](c2c(F)cc(N3CC4(CCCN(C(=O)CN5Cc6cc7c(cc6C5)C(=O)N(C5CCC(=O)NC5=O)C7)C4)C3)cc2F)N1CC(F)F (stereo partly shown)", "Parameter": "Traditional Western Degradation Potency", "Observed value": "C (“C”: >100 nM)"}
{"Compound": "C[C@@H]1Cc2c([nH]c3ccccc23)[C@@H](c2c(F)cc(N3CCC(N4CCC(N5Cc6cc7c(cc6C5)C(=O)N(C5CCC(=O)NC5=O)C7=O)CC4)CC3)cc2F)N1CC(F)F (stereo partly shown)", "Parameter": "Traditional Western Degradation Potency", "Observed value": "C (“C”: >100 nM)"}
{"Compound": "C[C@@H]1Cc2c([nH]c3ccccc23)[C@@H](c2c(F)cc(CN3CCC4(CCC(C(=O)N5Cc6cc7c(cc6C5)C(=O)N(C5CCC(=O)NC5=O)C7=O)CC4)CC3)cc2F)N1CC(F)F (stereo partly shown)", "Parameter": "Traditional Western Degradation Potency", "Observed value": "C (“C”: >100 nM)"}
{"Compound": "C[C@@H]1Cc2c([nH]c3ccccc23)[C@@H](c2c(F)cc(N3CC4(CCCN(CC(=O)N5Cc6cc7c(cc6C5)C(=O)N(C5CCC(=O)NC5=O)C7)C4)C3)cc2F)N1CC(F)F (stereo partly shown)", "Parameter": "Traditional Western Degradation Potency", "Observed value": "B (“B”: 10-100 nM)"}
{"Compound": "C[C@@H]1Cc2c([nH]c3ccccc23)[C@@H](c2c(F)cc(N3CCC4(CCN(C(=O)CN5Cc6cc7c(cc6C5)C(=O)N(C5CCC(=O)NC5=O)C7=O)CC4)CC3)cc2F)N1CC(F)F (stereo partly shown)", "Parameter": "Traditional Western Degradation Potency", "Observed value": "A (“A”: <10 nM)"}
{"Compound": "C[C@@H]1Cc2c([nH]c3ccccc23)[C@@H](c2ccc(C3CCC(C(=O)N4CCC(N5Cc6cc7c(cc6C5)C(=O)N(C5CCC(=O)NC5=O)C7=O)CC4)CC3)cn2)N1CC(F)F (stereo partly shown)", "Parameter": "Traditional Western Degradation Potency", "Observed value": "C (“C”: >100 nM)"}
{"Compound": "C[C@@H]1Cc2c([nH]c3ccccc23)[C@@H](c2c(F)cc(N3CC(F)(C(=O)N4CCC(CN5Cc6cc7c(cc6C5)C(=O)N(C5CCC(=O)NC5=O)C7=O)CC4)C3)cc2F)N1CC(F)F (stereo partly shown)", "Parameter": "Traditional Western Degradation Potency", "Observed value": "B (“B”: 10-100 nM)"}
{"Compound": "C[C@@H]1Cc2c([nH]c3ccccc23)[C@@H](c2c(F)cc(N3CCC(CN4CCC(N5Cc6cc7c(cc6C5)C(=O)N(C5CCC(=O)NC5=O)C7=O)C4)CC3)cc2F)N1CC(F)F (stereo partly shown)", "Parameter": "Traditional Western Degradation Potency", "Observed value": "A (“A”: <10 nM)"}
{"Compound": "C[C@@H]1Cc2c([nH]c3ccccc23)[C@@H](c2ccc(C3=CCC(C(=O)N4CCC(N5Cc6cc7c(cc6C5)C(=O)N(C5CCC(=O)NC5=O)C7=O)CC4)CC3)cc2F)N1CC1(F)CC1 (stereo partly shown)", "Parameter": "Traditional Western Degradation Potency", "Observed value": "C (“C”: >100 nM)"}
{"Compound": "C[C@@H]1Cc2c([nH]c3ccccc23)[C@@H](c2c(F)cc(N3CCC4(CCN(C(=O)CN5Cc6cc7c(cc6C5)C(=O)N(C5CCC(=O)NC5=O)C7=O)CC4)CC3)cc2F)N1CC(C)(F)F (stereo partly shown)", "Parameter": "Traditional Western Degradation Potency", "Observed value": "A (“A”: <10 nM)"}
{"Compound": "C[C@@H]1Cc2c([nH]c3ccccc23)[C@@H](c2c(F)cc(N3CC4(CCN(C(=O)CN5Cc6cc7c(cc6C5)C(=O)N(C5CCC(=O)NC5=O)C7=O)C4)C3)cc2F)N1CC(F)F (stereo partly shown)", "Parameter": "Traditional Western Degradation Potency", "Observed value": "A (“A”: <10 nM)"}
{"Compound": "C[C@@H]1Cc2c([nH]c3ccccc23)[C@@H](c2c(F)cc(N3CC4(CCN(CC(=O)N5Cc6cc7c(cc6C5)C(=O)N(C5CCC(=O)NC5=O)C7=O)C4)C3)cc2F)N1CC(F)F (stereo partly shown)", "Parameter": "Traditional Western Degradation Potency", "Observed value": "B (“B”: 10-100 nM)"}
{"Compound": "C[C@@H]1Cc2c([nH]c3ccccc23)[C@@H](c2c(F)cc(N3CCC(N4CCC(CC(=O)N5Cc6cc7c(cc6C5)C(=O)N(C5CCC(=O)NC5=O)C7)CC4)CC3)cc2F)N1CC(F)F (stereo partly shown)", "Parameter": "Traditional Western Degradation Potency", "Observed value": "A (“A”: <10 nM)"}
{"Compound": "C[C@@H]1Cc2c([nH]c3ccccc23)[C@@H](c2c(F)cc(C3=CCC(C(=O)N4CCC(N5Cc6cc7c(cc6C5)C(=O)N(C5CCC(=O)NC5=O)C7=O)CC4)CC3)cc2F)N1CC1(F)CC1 (stereo partly shown)", "Parameter": "Traditional Western Degradation Potency", "Observed value": "C (“C”: >100 nM)"}
{"Compound": "C[C@@H]1Cc2c([nH]c3ccccc23)[C@@H](c2ccc(C3CCC(C(=O)N4CCC(N5Cc6cc7c(cc6C5)C(=O)N(C5CCC(=O)NC5=O)C7=O)CC4)CC3)cc2F)N1CC(F)F (stereo partly shown)", "Parameter": "Traditional Western Degradation Potency", "Observed value": "B (“B”: 10-100 nM)"}
{"Compound": "C[C@@H]1Cc2c([nH]c3ccccc23)[C@@H](c2c(F)cc(N3CC4(CCCN(CC(=O)N5Cc6cc7c(cc6C5)C(=O)N(C5CCC(=O)NC5=O)C7=O)C4)C3)cc2F)N1CC(F)F (stereo partly shown)", "Parameter": "Traditional Western Degradation Potency", "Observed value": "C (“C”: >100 nM)"}
